Recorded growth inhibition values for a group of compounds are listed next.
Experiment: NCI Yeast Anticancer Drug Screen. Data for the rad50 strain (AID 155);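 also: 0% = growth of vehicle-only cultures of the same strain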
Conditions: S. cerevisiae rad50 strain growth inhibition; at 50.0 µM; hits give high values
Procedure: Growth inhibition of yeast strains with defined genetic alterations is measured as a screen for potential anti-cancer activity. Selected strains with alterations in DNA damage repair or cell cycle control were exposed to compounds and growth inhibition was measured relative to vehicle treated controls. The strain used in this assay is rad50
Compounds without any hit were thinned out: in the full panel of roughly 79,000, 15% have a hit.
measuredProperty: growth inhibition (%)

| compound | measuredProperty | resultUnits | recordedMeasurement |
| --- | --- | --- | --- |
| CCCCCCCCCCCCCCCCOP(=O)(O)OP(=O)(O)OCC1OC(n2ccc(N)nc2=O)CC1O (stereo not given) | growth inhibition | % | -10.2 |
| CC(C)(C)OC(=O)N1CCCC1C(=O)Oc1ccc([N+](=O)[O-])cc1 (stereo not given) | growth inhibition | % | 31.6 |
| CCCCN(CCCC)CC(CC)N(CCCC)CCCC (stereo not given) | growth inhibition | % | -8.4 |
| CSCNC(=O)Nc1ccccc1 | growth inhibition | % | 30.4 |
| CCOC(=O)n1ccnc1 | growth inhibition | % | -6.4 |
| CC(=O)NNc1nc(C)c(C(/C=C/c2ccccc2O)=N/N=C(N)N)s1 | growth inhibition | % | -19.2 |
| Nc1ncnc2c1sc(=S)n2-c1ccccc1 | growth inhibition | % | -5.3 |
| Cc1cccc(C2(C(=O)O)CCCC2)c1 | growth inhibition | % | 14.7 |
| Cn1c(=O)c2c(n(C)c1=O)n(C)c(=O)n2C | growth inhibition | % | 18.3 |
| O=C(O)C(O)(O)C(=O)O | growth inhibition | % | -2.9 |
| O=C1Sc2ccccc2Cn2cccc21 | growth inhibition | % | -1.7 |
| NC(=O)c1ccccc1NC(=O)C(=O)C(C(=O)c1ccc2ccccc2c1)C1OC(=O)c2ccccc21 (stereo not given) | growth inhibition | % | 0.7 |
| CCCCCCCCCCCCCCCCCCOCCOCCOCCOCCO | growth inhibition | % | -21.7 |
| CCOc1cc(/C=N/NC(=O)C(O)C(O)C(O)C(O)CO)ccc1O (stereo not given) | growth inhibition | % | 1.5 |
| CC1(C)C2CCC1(C)C(NC(=O)COCCOCC(N)=O)C2 (stereo not given) | growth inhibition | % | -45 |
| CCOC(=O)NC(=O)c1cn(CCCCCCCCCCC(=O)NCCCN2CCN(CCCNC(=O)CCCCCCCCCCn3cc(C(=O)NC(=O)OCC)c(=O)[nH]c3=O)CC2)c(=O)[nH]c1=O | growth inhibition | % | -19.2 |
| COc1ccc(C(O)(c2ccccc2C)c2ccccc2OC)cc1 (stereo not given) | growth inhibition | % | 16.1 |
| CCOC(=O)/C(Cl)=C1\SN(C(=O)OCC)N=C1C | growth inhibition | % | -7.65 |
| c1ccc2cc3c(cc2c1)Cn1c-3nc2ccccc21 | growth inhibition | % | 19.4 |
| O=C1ON=C(c2ccccc2)/C1=C\C=C\c1ccccc1 | growth inhibition | % | 18.2 |
| Cc1ccc(C(C)(C)C)c2oc(=O)cc(C)c12 | growth inhibition | % | 20.2 |
| CC(C)CNC(=O)Nc1ccccc1C(F)(F)F | growth inhibition | % | -6.5 |
| O=C(Nc1ccc2ccccc2c1)c1ccc(Cl)cc1 | growth inhibition | % | 4.65 |
| CN1C(=O)C(Cc2cnc[nH]2)NC1=S (stereo not given) | growth inhibition | % | 11.5 |
| COc1cccc2c(SCC(=O)Nc3ccccc3-c3ccccc3NC(=O)CSc3c4ccccc4nc4c(OC)cccc34)c3ccccc3nc12 | growth inhibition | % | -2.4 |
| COc1ccc(C2Oc3cc(OC)c(OC)cc3C2CCl)cc1OC (stereo not given) | growth inhibition | % | -20.1 |
| O=P(O)(O)c1ccc(I)cc1 | growth inhibition | % | 10.5 |
| O=C(OC(c1ccc(Cl)cc1)c1ccc(Cl)cc1)C(c1ccc(Cl)cc1)c1ccc(Cl)cc1 | growth inhibition | % | 15.5 |
| CCCCOC(=O)C1C=C(N)CCC1 (stereo not given) | growth inhibition | % | 12.8 |
| CCCC(=O)OCC1OC(n2ccc(N)nc2=O)C(OC(=O)CCC)C1OC(=O)CCC (stereo not given) | growth inhibition | % | 18.6 |
| O=NN(C(=O)NCCCl)c1[nH]c(=O)ncc1Br | growth inhibition | % | -8.6 |
| O=C(O)c1ccccc1NC(C(=O)O)c1ccccc1 (stereo not given) | growth inhibition | % | -13.1 |
| Cc1cc(Cc2ccc(N)c(C)c2)ccc1N | growth inhibition | % | 3.4 |
| CCCCC1CC(c2ccc(Cl)cc2)=NO1 (stereo not given) | growth inhibition | % | 26.9 |
| CCOC(=O)/C=C1\CONC(c2ccc(OC)cc2)=N1 | growth inhibition | % | -9.1 |
| CCCOc1ccc(C(=O)O)cc1 | growth inhibition | % | 10.8 |
| COc1cccc2c1CCC1(O)OC(=O)CC21 (stereo not given) | growth inhibition | % | -17.4 |
| C=C1C2CC3CCC2C(OC(=O)c2ccccc2C(=O)O)C13 (stereo not given) | growth inhibition | % | -0.45 |
| O=P1(c2ccccc2)c2ccccc2CCc2ccccc21 | growth inhibition | % | 18 |
| O=c1c2cc(S(=O)(=O)Nc3c(Cl)cccc3Cl)ccc2ncn1NS(=O)(=O)c1ccc2ccccc2c1 | growth inhibition | % | -21.8 |
| Cc1c(O)c(=O)ccn1CCN | growth inhibition | % | 5.65 |
| CC(C)C1SCC(=O)N1c1nncs1 (stereo not given) | growth inhibition | % | -2.55 |
| Cc1nc2ccccc2c(=O)n1NC(=S)Nc1ccccc1 | growth inhibition | % | -40.9 |
| CC1=C2CC/C(C)=C/CCC3(C)OC3CC/C(C)=C/C2OC1=O (stereo not given) | growth inhibition | % | -8.7 |
| CSc1nc(SC)c2c(C(N)=S)[nH]nc2n1 | growth inhibition | % | 23.3 |
| O=C(O)c1ccc(C2COc3ccc(Cl)cc3C2)cc1 (stereo not given) | growth inhibition | % | -10.8 |
| CN(C)CCOC(=O)C(O)C1CCCCC1 (stereo not given) | growth inhibition | % | -14.3 |
| OCC1NCCC(O)C1OC1OC(CO)C(O)C(O)C1O (stereo not given) | growth inhibition | % | 5.25 |
| CC1CCCCCN1CCC(=O)c1ccccc1 (stereo not given) | growth inhibition | % | 17.9 |
| CC(=O)NCCc1ccc(C(=O)O)cc1 | growth inhibition | % | -17 |

====

Assay: NCI Yeast Anticancer Drug Screen. Data for the mec2-1 strain (AID 157)
Conditions: S. cerevisiae mec2-1 strain, at 50.0 µM, hits give high values
About 79,000 compounds went through this panel and 15% of them were active in at least one assay; those are over-represented in the sample as a whole.

| compound | growth inhibition / % |
| --- | --- |
| C=C(C)C1Cc2c(cc(OC)c3c(=O)c4cccc(O)c4oc23)O1 (centres undefined) | 15.4 |
| CC[C@H]1OC(=O)[C@H](C)[C@@H](OC2CC(C)(OC)C(O)C(C)O2)[C@H](C)[C@@H](OC2OC(C)CC(N(C)C)C2OC(=O)CCC2CCCC2)[C@](C)(O)C[C@@H](C)C(=O)[C@H](C)[C@@H](O)[C@]1(C)O (some centres undefined) | -6.95 |
| C=CC(O)C1OC2OC(C)(C)OC2C2OC(C)(C)OC12 (centres undefined) | 13.2 |
| CC1(Nc2ccccc2)OC(=O)c2ccccc21 (centres undefined) | -13.7 |
| Cc1cc(Cl)c(Cl)cc1NC(=O)C(Br)C(Br)c1ccccc1 (centres undefined) | 71.3 |
| CCCCCO[Si](OCCCCC)(OCCCCC)OCCCCC | -9.3 |
| COCCOCOCCCC#C[Si](C)(C)C | 25.9 |
| O=S(=O)(O)NNc1ccc(N=Nc2ccccc2)cc1 | -12.9 |
| COC[C@H]1C(=O)NCC(=O)N2N=CCC[C@H]2C(=O)N(O)[C@H](C)C(=O)O[C@@H](C(C)C)[C@H](NC(=O)[C@@](C)(O)[C@]2(O)CC[C@@H](CC(C)C)[C@H](C)O2)C(=O)N2NCCC[C@@H]2C(=O)N1O | 93.6 |
| CCOC(=O)C(F)C(C)=O (centres undefined) | 94.5 |
| Cc1cc(Br)c(I)c([N+](=O)[O-])c1 | 27.6 |
| COc1ccc(/C=N\O[Si](C)(C)C(C)(C)C)cc1O[Si](C)(C)C(C)(C)C | 17.2 |
| COc1ccc(C2SCC(=O)N2NC(=O)c2ccc(NC(C)=O)cc2)c(OC)c1 (centres undefined) | -7.5 |
| O=C(Nc1ccc([N+](=O)[O-])cc1)N(c1ccccc1)c1cc(N2CCOCC2)ccn1 | 16.6 |
| CCC/C(Cl)=N/OC(=O)Nc1cc(C(F)(F)F)ccc1OC | 17.6 |
| COc1ccc(OC)c(NCC(=O)Nn2cnc3ccc(S(=O)(=O)Nc4cc(OC)ccc4OC)cc3c2=O)c1 | 12.7 |
| O=C(/C=C\c1ccccc1)C(C(=O)/C=C/c1ccccc1)C(=O)c1ccccc1 (centres undefined) | -3.05 |
| C[C@@H]1C(=O)CC2(O)[C@@]13C[C@@H](OC(=O)[C@@H]3O)[C@@H](C)[C@@]21COC1=O (some centres undefined) | 14.2 |
| ClCCOCCOc1ccccc1Cl | -13.8 |
| CCCOC(=O)c1ccccc1C=O | -3.5 |
| CC(C)NC(=O)/C=C/C(=O)O | -20.4 |
| Nc1nc(Cl)cc(Oc2ccc(Cl)cc2)n1 | -17.6 |
| CN(C)c1ccc(/C=N/NC(=O)NN)cc1 | -12.3 |
| c1ccc2[nH]c3c(N=NC4=NCCN4)c4ccccc4c-3nc2c1 | -56.2 |
| CC(=O)N1C(=O)C(C)(C2=CC(=O)c3ccccc3C2=O)c2ccc(Br)cc21 (centres undefined) | 77 |
| COc1cc2ccc3c4c(OC)cc5c(c4c[n+](C)c3c2cc1OC)OCO5 | 91.3 |
| NC[C@H]1Nc2ccccc2[C@@H](O)C1O (some centres undefined) | 6.95 |
| CC1(C)CC(=O)C(/C=N/C(=S)NCCc2ccccc2)=C(O)C1 | -53.4 |
| O=c1c2nn3c(=O)n(-c4ccccc4)c(=O)c3nn2c(=O)n1-c1ccccc1 | -10.6 |
| CC(=O)N1c2ccccc2C23CCN4CC5=CCOC(O)C(C5CC42)C13 (centres undefined) | -21.4 |
| Cc1ccc(NC(=O)C2c3ccccc3-c3ccccc32)cc1 | 16.6 |
| C[CH2][GeH][CH2]C.C[CH2][Ge]([CH2]C)[CH2]C | 97 |
| CC(=O)/C(=C/N1CCNC1=S)C(=O)Nc1ccc(Cl)cc1 | -24 |
| CCC(CC)C(=O)OCCOCCOCCOC(=O)C(CC)CC | -16.8 |
| CCOC(=O)C(C)(C)Oc1ccc2c(-c3ccccc3)cc(=O)oc2c1 | -8.4 |
| O=C1CCCCCCCCCCC1 | -62.7 |
| CC(O)(c1ccc(Cl)cc1)c1ccc(Cl)cc1 | -18.9 |
| O=c1c2ccccc2oc2cc([N+](=O)[O-])cc([N+](=O)[O-])c12 | -16.2 |
| CC(C)(C#N)C(C)(C)c1cnc2ccccc2c1 | -7.15 |
| C=CCO[Si](OCC=C)(OCC=C)OCC=C | -19 |
| CC(C)(C)c1ccc2c(c1)C(C)(C)CCC2(C)C | 0.8 |
| O=C(CCC(CCC(=O)c1ccccc1)[N+](=O)[O-])c1ccccc1 | -10.8 |
| C1=C(c2ccccc2)N(c2ccccc2)N=C(c2ccccc2)C1 | -19.7 |
| O=C(c1ccc(F)cc1)C1CC1 | -17.8 |

Each recorded value in this set is attributed to PubChem BioAssay (NCI).
